Tested on: S. aureus MSSA476
Construct: MSSA476
Parameters: species or system S. aureus MSSA476 (TSB) or V. cholerae SAD30 (LB); 384-well bacterial growth screen at 25 uM, OD600 relative to DMSO control
Conditions: relative growth, OD600, TSB; 25 µM; inhibitor
Hit rate of the full screen: of about 3,200 compounds, about 75 (2%) showed an effect of 50% or more. Only a selection was taken, and strong results are over-represented in it overall.
Reported property: % of control remaining (%)
Write the answer as a number in %, unit excluded.

Field: example entries. Status: answers known.
CSc1cccc(-n2c(C)cc(C(=O)CCl)c2C)c1 | 12.8125
Cc1cc(C(=O)CCl)c(C)n1-c1cccc([N+](=O)[O-])c1 | 136.563

-- ask Supply reported % of control remaining belonging to this compound: C=CC(=O)NCC1=NOCC1
-- reply 95.7771

-- ask Please supply the value of reported % of control remaining for the item O=C(CCl)c1ccc2[nH]c(=O)[nH]c2c1
-- reply 100.313

-- ask Please look at this compound and report its % of control remaining: C=CC(=O)N1CCCCC1c1noc(C2CC2)n1 (centres unmarked)
-- reply 93.3391

-- ask # return recorded % of control remaining for input O=C1C=CC(=O)N1c1cc(C(F)(F)F)ccc1Cl
-- reply 133.75

-- ask Identify the reported % of control remaining for the following entry. Cc1cc(C(=O)CCl)c(C)n1-c1cccc(Cl)c1
-- reply 100.313

-- ask Please give measured % of control remaining of the following entry: O=C1C=CC(=O)N1CCc1ccccc1
-- reply 58.4375

----------
System: S. aureus MSSA476
Construct: MSSA476
Parameters: species or system S. aureus MSSA476 (TSB) or V. cholerae SAD30 (LB); 384-well bacterial growth screen at 25 uM, OD600 relative to DMSO control
Settings: relative growth, OD600, TSB; 25 µM; inhibitor
Out of some 3,200 compounds screened, about 75 (2%) showed an effect of 50% or more. The sample holds strong results, similar compounds and a random draw of the others, so the mix is not that of the screen.
Reported property: % of control remaining (%)
The response must be a number in % with no trailing unit.

CC(=O)Nc1ccc(C(=O)CCl)cc1 [10-O12, N-[4-(2-chloroacetyl)phenyl]acetamide] | 6.875
CC(Cl)C(=O)N(Cc1nnc(-c2ccccc2Cl)o1)C1CC1 (centres unmarked) | 92.5319
N#CC(=Cc1sc2ccccc2c1Cl)C(=O)NC1CC1 | 110.262

-- ask Give the measured % of control remaining for C=CC(=O)NC12CC3(C)CC(C)(CC(O)(C3)C1)C2
-- reply 111.473

-- ask Kindly indicate its recorded % of control remaining. Item: O=C(CCl)c1ccc(NC(=O)c2ccccc2)cc1 [10-B06, N-[4-(2-chloroacetyl)phenyl]benzamide]
-- reply 0

-- ask Look up % of control remaining of CCCCNC(=O)C(C#N)=Cc1cccc(Cl)c1Cl and report it.
-- reply 71.0112

-- ask Please supply the value of reported % of control remaining for the item N#CC(C(=O)CCl)=C1NC2=C(CCc3ccccc32)S1
-- reply 59.6875

-- ask Supply recorded % of control remaining for CS(=O)(=O)N1CCCc2cc(C(=O)CCl)ccc21 here.
-- reply 1.5625

-- ask Consider the compound CC(NC(=O)CCl)c1cn(-c2ccccc2)nn1 (centres unmarked) . State its measured % of control remaining.
-- reply 91.0747
